test system: OVCAR-3; assay: Growth inhibition of human OVCAR3 cells incubated for 48 hrs by sulforhodamine B assay; type: functional, cell-based; settings: OVCAR-3, 48 h
readout kind: IC50 (µM)
Numbers only, in µM.

O=C(Nc1cccc(-n2cc(-c3ccncc3)c(-c3cc(O)cc(Cl)c3)n2)c1)c1ccc(N2CCOCC2)c(C(F)(F)F)c1 has a reported IC50 of 7.2

* * *

For each entry below, report its GI50 value.
system: CAKI-1; assay: Growth inhibition of human Caki1 cells incubated for 48 hrs by sulforhodamine B assay; type: functional, cell-based; conditions: CAKI-1, 48 h, read-out: GI50
Give bare numbers, in nM.

O=C(Nc1cccc(-n2cc(-c3ccncc3)c(-c3cc(O)cc(Cl)c3)n2)c1)Nc1ccc(Cl)c(Cl)c1 ... 2210

Lab note: each molecule below needs its GI50 filled in.
1. O=C(Nc1cccc(-n2cc(-c3ccncc3)c(-c3cc(O)cc(Cl)c3)n2)c1)c1cc(C(F)(F)F)cc(C(F)(F)F)c1
2. O=C(Nc1cccc(-n2cc(-c3ccncc3)c(-c3cc(O)cc(Cl)c3)n2)c1)c1ccc(N2CCOCC2)c(C(F)(F)F)c1
3. COc1cc(Cl)cc(-c2nn(-c3cccc(NC(=O)c4ccc(N5CCOCC5)c(C(F)(F)F)c4)c3)cc2-c2ccncc2)c1
4. COc1cc(Cl)cc(-c2nn(-c3cccc(NC(=O)Nc4cccc(C(F)(F)F)c4)c3)cc2-c2ccncc2)c1

3570
1100
4400
1290

* * *

For each entry below, report its growth at 0.01 µM value.
tested on: M14; test: Growth inhibition of human M14 cells assessed as cell growth at 0.01 uM incubated for 48 hrs by sulforhodamine B assay relative to control; assay type: functional; details: M14, 48 h, read-out: Activity
Please answer using a numeric value trailed by its unit.

O=C(Nc1cccc(-n2cc(-c3ccncc3)c(-c3cc(O)cc(Cl)c3)n2)c1)Nc1ccc(Cl)c(C(F)(F)F)c1 ... 97%
O=C(Nc1cccc(-n2cc(-c3ccncc3)c(-c3cc(O)cc(Cl)c3)n2)c1)Nc1ccc(Cl)c(Cl)c1 ... 99%
COc1cc(Cl)cc(-c2nn(-c3cccc(NC(=O)Nc4ccc(Cl)c(C(F)(F)F)c4)c3)cc2-c2ccncc2)c1 ... 97%

O=C(Nc1cccc(-n2cc(-c3ccncc3)c(-c3cc(O)cc(Cl)c3)n2)c1)c1ccc(N2CCOCC2)c(C(F)(F)F)c1 has a reported growth at 0.01 µM of 95%

* * *

tested on: SW-620; experiment: Growth inhibition of human SW620 cells assessed as cell growth at 0.01 uM incubated for 48 hrs by sulforhodamine B assay relative to control; format: functional; details: SW-620, 48 h, read-out: Activity
For each entry below, report its growth at 0.01 µM value.
Give bare numbers, in %.

COc1cc(Cl)cc(-c2nn(-c3cccc(NC(=O)Nc4cccc(C(F)(F)F)c4)c3)cc2-c2ccncc2)c1 ... 103
O=C(Nc1cccc(-n2cc(-c3ccncc3)c(-c3cc(O)cc(Cl)c3)n2)c1)c1cc(C(F)(F)F)cc(C(F)(F)F)c1 ... 99
COc1cc(Cl)cc(-c2nn(-c3cccc(NC(=O)Nc4ccc(Cl)c(Cl)c4)c3)cc2-c2ccncc2)c1 ... 100
O=C(Nc1cccc(-n2cc(-c3ccncc3)c(-c3cc(O)cc(Cl)c3)n2)c1)Nc1ccc(Cl)c(C(F)(F)F)c1 ... 97
COc1cc(Cl)cc(-c2nn(-c3cccc(NC(=O)c4ccc(N5CCOCC5)c(C(F)(F)F)c4)c3)cc2-c2ccncc2)c1 ... 96

COc1cc(Cl)cc(-c2nn(-c3cccc(NC(=O)Nc4cc(C(F)(F)F)cc(C(F)(F)F)c4)c3)cc2-c2ccncc2)c1 has a reported growth at 0.01 µM of 98

* * *

tested on: COLO 205; experiment: Growth inhibition of human COLO205 cells incubated for 48 hrs by sulforhodamine B assay; type: functional, cell-based; details: COLO 205, 48 h, read-out: pTGI (converted)
readout kind: TGI (µM)
One number for each entry, in µM.

Some solved entries appear below for comparison.
O=C(Nc1cccc(-n2cc(-c3ccncc3)c(-c3cc(O)cc(Cl)c3)n2)c1)Nc1ccc(Cl)c(Cl)c1 ... 3.8
COc1cc(Cl)cc(-c2nn(-c3cccc(NC(=O)Nc4ccc(Cl)c(C(F)(F)F)c4)c3)cc2-c2ccncc2)c1 ... 3.09

Turning to the following compound.
COc1cc(Cl)cc(-c2nn(-c3cccc(NC(=O)Nc4ccc(Cl)c(Cl)c4)c3)cc2-c2ccncc2)c1 has a reported TGI of 3.31

* * *

test system: NCI/ADR-RES; assay: Growth inhibition of human NCI/ADR-RES cells assessed as cell growth at 10 uM incubated for 48 hrs by sulforhodamine B assay relative to control; format: functional; conditions: read-out: Activity
Each entry gets f if its growth at 10 µM stays under 50%, and t if its growth at 10 µM is 50% or above.

Worked examples follow.
COc1cc(Cl)cc(-c2nn(-c3cccc(NC(=O)c4cccc(C(F)(F)F)c4)c3)cc2-c2ccncc2)c1 ... f
COc1cc(Cl)cc(-c2nn(-c3cccc(NC(=O)c4cc(C(F)(F)F)cc(C(F)(F)F)c4)c3)cc2-c2ccncc2)c1 ... t
O=C(Nc1cccc(-n2cc(-c3ccncc3)c(-c3cc(O)cc(Cl)c3)n2)c1)c1cc(C(F)(F)F)cc(C(F)(F)F)c1 ... f
COc1cc(Cl)cc(-c2nn(-c3cccc(NC(=O)Nc4ccc(Cl)c(C(F)(F)F)c4)c3)cc2-c2ccncc2)c1 ... f

# ---- query compound ----
In plain terms: is recorded growth at 10 µM at least 50% for O=C(Nc1cccc(-n2cc(-c3ccncc3)c(-c3cc(O)cc(Cl)c3)n2)c1)c1ccc(N2CCOCC2)c(C(F)(F)F)c1 ?
f

* * *

test system: UACC-62; assay: Growth inhibition of human UACC62 cells incubated for 48 hrs by sulforhodamine B assay; format: functional, cell-based; conditions: UACC-62, 48 h
readout kind: pIC50
Give bare numbers, as −log10 of the molar value.

COc1cc(Cl)cc(-c2nn(-c3cccc(NC(=O)Nc4cc(C(F)(F)F)cc(C(F)(F)F)c4)c3)cc2-c2ccncc2)c1 has a reported pIC50 of 6.44

* * *

system: TK-10; assay: Growth inhibition of human TK10 cells incubated for 48 hrs by sulforhodamine B assay; assay type: functional, cell-based; settings: TK-10, 48 h
readout kind: IC50 (µM)
One number for each entry, in µM.

With TK-10 as the test system, CNC(=O)c1cc(Oc2ccc(NC(=O)Nc3ccc(Cl)c(C(F)(F)F)c3)cc2)ccn1 showed IC50 of 3.98

* * *

For each entry below, report its growth at 0.01 µM value.
system: RXF 393; experiment: Growth inhibition of human RXF393 cells assessed as cell growth at 0.01 uM incubated for 48 hrs by sulforhodamine B assay relative to control; assay type: functional; details: RXF 393, 48 h, read-out: Activity
Answers are plain numbers, in %.

O=C(Nc1cccc(-n2cc(-c3ccncc3)c(-c3cc(O)cc(Cl)c3)n2)c1)c1cc(C(F)(F)F)cc(C(F)(F)F)c1 ... 96
COc1cc(Cl)cc(-c2nn(-c3cccc(NC(=O)c4cccc(C(F)(F)F)c4)c3)cc2-c2ccncc2)c1 ... 58
COc1cc(Cl)cc(-c2nn(-c3cccc(NC(=O)Nc4ccc(Cl)c(Cl)c4)c3)cc2-c2ccncc2)c1 ... 100
COc1cc(Cl)cc(-c2nn(-c3cccc(NC(=O)Nc4cccc(C(F)(F)F)c4)c3)cc2-c2ccncc2)c1 ... 93
COc1cc(Cl)cc(-c2nn(-c3cccc(NC(=O)Nc4cc(C(F)(F)F)cc(C(F)(F)F)c4)c3)cc2-c2ccncc2)c1 ... 96

Lab note: each molecule below needs its growth at 0.01 µM filled in.
1. O=C(Nc1cccc(-n2cc(-c3ccncc3)c(-c3cc(O)cc(Cl)c3)n2)c1)c1ccc(N2CCOCC2)c(C(F)(F)F)c1
2. O=C(Nc1cccc(-n2cc(-c3ccncc3)c(-c3cc(O)cc(Cl)c3)n2)c1)Nc1ccc(Cl)c(Cl)c1

1. 91
2. 93

* * *

system: NCI-H322M; experiment: Growth inhibition of human NCI-H322M cells incubated for 48 hrs by sulforhodamine B assay; type: functional, cell-based; settings: read-out: pTGI (converted)
readout kind: TGI

COc1cc(Cl)cc(-c2nn(-c3cccc(NC(=O)Nc4cc(C(F)(F)F)cc(C(F)(F)F)c4)c3)cc2-c2ccncc2)c1 ... 11 µM

Lab note: each compound below needs its TGI filled in.
1. O=C(Nc1cccc(-n2cc(-c3ccncc3)c(-c3cc(O)cc(Cl)c3)n2)c1)Nc1ccc(Cl)c(Cl)c1
2. O=C(Nc1cccc(-n2cc(-c3ccncc3)c(-c3cc(O)cc(Cl)c3)n2)c1)Nc1ccc(Cl)c(C(F)(F)F)c1
3. COc1cc(Cl)cc(-c2nn(-c3cccc(NC(=O)c4ccc(N5CCOCC5)c(C(F)(F)F)c4)c3)cc2-c2ccncc2)c1

1. 7.76 µM
2. 12.9 µM
3. > 100 µM
